- EXPERIMENTAL TARGET: T1, TL1A in human blood (human, UniProt O95150 72-251, limits assumed)
- T1 sequence (looked up): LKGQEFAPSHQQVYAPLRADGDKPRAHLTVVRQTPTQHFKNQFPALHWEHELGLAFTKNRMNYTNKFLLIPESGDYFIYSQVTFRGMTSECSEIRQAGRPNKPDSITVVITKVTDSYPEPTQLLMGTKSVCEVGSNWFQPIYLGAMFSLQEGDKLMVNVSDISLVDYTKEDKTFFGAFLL
- PROCEDURE DETAILS: cell-based or functional assay
For each entry below, report its % Inhibition at 10 nM Ig; interferon gamma release in human blood value.

For reference, reported % Inhibition at 10 nM Ig; interferon gamma release in human blood for A147 (antibody, IgG1, V domains shown) VH: QVQLVQSGAEVKKPGASVKVSCKASGFDIQDTYMHWVKQRPGQGLEWMGRIEPASGHIKYDPKFQGRVTMTRDTSTSTVYMELSSLRSEDTAVYYCARSGGLPDWWGQGTTVTVSS VL: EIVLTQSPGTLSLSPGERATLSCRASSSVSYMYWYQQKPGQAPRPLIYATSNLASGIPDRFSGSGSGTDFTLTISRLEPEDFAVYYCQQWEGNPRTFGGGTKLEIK stands at 72.4%

Data point: A219 (antibody, V domains shown, IgG1) VH: QVQLVQSGAEVKKPGASVKVSCKASGFDIQDTYMHWVKQRPGQGLEWMGRIDPASGHTKYDPKFQVRVTITRDTSTSTVYLELSSLRSEDTAVYYCARSGGLPDVWGQGTTVTVSS VL: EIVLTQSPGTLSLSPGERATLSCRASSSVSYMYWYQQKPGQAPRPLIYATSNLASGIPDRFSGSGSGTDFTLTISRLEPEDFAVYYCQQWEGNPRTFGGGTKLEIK ; % Inhibition at 10 nM Ig; interferon gamma release in human blood = 75.2%

// field: % Inhibition at 10 nM Ig; interferon gamma release in human blood; key: A212 (antibody, IgG1, V domains shown) VH: QVQLVQSGAEVKKPGASVKVSCKASGFDIQDTYMHWVRQRPGQGLEWIGRIDPASGHTKYDPKFQVRATITTDTSTSTAYLELSSLRSEDTAVYYCARSGGLPDVWGQGTTVTVSS VL: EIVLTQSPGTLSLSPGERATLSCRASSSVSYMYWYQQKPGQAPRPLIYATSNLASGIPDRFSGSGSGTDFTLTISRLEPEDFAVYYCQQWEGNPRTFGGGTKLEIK ; value = 71.2%
